Record form. Attribute: inhibition at 200 µM. Fill in for each entry.
- target.or.system: Mtb proteasome (Mycobacterium tuberculosis, UniProt P9WHT9)
- Construct: Proteasome activity of the supernatants was assessed; endogenous in cells; host or cells: Mycobacterium tuberculosis H37Ra (crude lysate supernatant)
- Sequence (P9WHT9 58-291): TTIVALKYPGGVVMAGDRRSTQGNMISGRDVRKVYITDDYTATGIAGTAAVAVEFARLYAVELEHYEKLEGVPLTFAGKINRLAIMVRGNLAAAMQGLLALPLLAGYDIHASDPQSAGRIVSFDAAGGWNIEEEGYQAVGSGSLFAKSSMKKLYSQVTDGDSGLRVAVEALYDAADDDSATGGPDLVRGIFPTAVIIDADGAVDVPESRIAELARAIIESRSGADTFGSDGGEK
- Sequence (P9WHU1 whole entry partner): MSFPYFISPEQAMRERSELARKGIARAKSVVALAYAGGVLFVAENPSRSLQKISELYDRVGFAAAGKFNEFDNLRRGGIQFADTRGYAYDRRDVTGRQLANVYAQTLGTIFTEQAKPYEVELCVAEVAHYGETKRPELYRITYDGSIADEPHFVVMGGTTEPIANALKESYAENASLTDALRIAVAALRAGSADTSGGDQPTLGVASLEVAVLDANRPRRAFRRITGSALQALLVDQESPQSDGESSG
- test.description: biochemical
- assay.setup: 0.5 h, read-out: IA: inhibitory activity of Mtb proteasome
One number for each entry, in %.

Recorded inhibition at 200 µM, per entry:
[[record]]
molecule = "O=C(/C=C/c1ccc(O)c(O)c1)O[C@@H]1C[C@](O)(C(=O)O)C[C@@H](O)[C@H]1O"
measured = 0

[[record]]
molecule = "O=c1cc(-c2ccc(O)c(O)c2)oc2cc(O)cc(O)c12"
measured = 0

[[record]]
molecule = "COc1ccc(-c2cc(=O)c3c(O)c(OC)c(O)c(OC)c3o2)cc1"
measured = 48

[[record]]
molecule = "Oc1ccc(/C=C/c2cc(O)cc(O)c2)cc1"
measured = 0


Let us examine a further case.
In one line, give reported inhibition at 200 µM of the entry C[C@H]1[C@H](OC(=O)CCC(=O)O)O[C@@H]2O[C@@]3(C)CC[C@H]4[C@H](C)CC[C@@H]1[C@@]24OO3 [artesunate, reference compound] .
13.8

---

- target.or.system: Mtb proteasome (Mycobacterium tuberculosis)
- Construct: Proteasome activity of the supernatants was assessed; endogenous in cells; host or cells: Mycobacterium tuberculosis H37Ra (crude lysate supernatant)
- test.description: biochemical
- assay.setup: 0.5 h, read-out: IA: inhibitory activity of Mtb proteasome
Give measured inhibition at 200 µM for each item. Keep answers brief.
Numbers only, in %.

Observe how each entry below is paired with its result.
[[record]]
compound = "O=C1C[C@@H]2OCC=C3CN4CC[C@]56c7ccccc7N1[C@H]5[C@H]2[C@H]3C[C@H]46 [strychnine]"
target_or_system = "Mtb proteasome (Mycobacterium tuberculosis)"
endpoint_label = "inhibition at 200 µM"
measured = 0

[[record]]
compound = "CC(=O)O[C@H]1C(=O)[C@@]2(C)[C@H]([C@H](OC(=O)c3ccccc3)[C@]3(O)C[C@H](OC(=O)[C@H](O)[C@@H](NC(=O)c4ccccc4)c4ccccc4)C(C)=C1C3(C)C)[C@]1(OC(C)=O)CO[C@@H]1C[C@@H]2O [paclitaxel, reference compound]"
target_or_system = "Mtb proteasome (Mycobacterium tuberculosis)"
endpoint_label = "inhibition at 200 µM"
measured = 0

[[record]]
compound = "CC1(C)O[C@H]2CC(=O)OC[C@]23[C@H]2CC[C@@]4(C)[C@H](c5ccoc5)OC(=O)[C@H]5O[C@]54[C@]2(C)C(=O)C[C@@H]13 [limonin]"
target_or_system = "Mtb proteasome (Mycobacterium tuberculosis)"
endpoint_label = "inhibition at 200 µM"
measured = 1.61

[[record]]
compound = "CC(C)=CCOc1c2occc2cc2ccc(=O)oc12 [imperatorin]"
target_or_system = "Mtb proteasome (Mycobacterium tuberculosis)"
endpoint_label = "inhibition at 200 µM"
measured = 15.9

[[record]]
compound = "COc1c(O[C@@H]2O[C@H](CO)[C@@H](O)[C@H](O)[C@H]2O)cc2occ(-c3ccc(O)cc3)c(=O)c2c1O [tectoridin]"
target_or_system = "Mtb proteasome (Mycobacterium tuberculosis)"
endpoint_label = "inhibition at 200 µM"
measured = 0


Please supply inhibition at 200 µM for each of the following items, keeping them in order.
1. C=CCc1ccc(O)c(-c2cc(CC=C)ccc2O)c1 [magnolol]
2. O=c1ccc2ccc(O)cc2o1 [umbelliferone]
3. O=c1c2cc(O)c(O)cc2oc2cc(O)c([C@@H]3O[C@H](CO)[C@@H](O)[C@H](O)[C@H]3O)c(O)c12 [mangiferin]
4. OCc1ccccc1O[C@@H]1O[C@H](CO)[C@@H](O)[C@H](O)[C@H]1O [salicin]

1: 0; 2: 0; 3: 31.9; 4: 0

Need inhibition at 200 µM for each of these compounds.
1. COc1ccc(-c2cc(=O)c3c(O)cc(O)cc3o2)cc1O [diosmetin]
2. O=c1c(-c2ccc(O)cc2)coc2cc(O)cc(O)c12 [genistein]
3. OC[C@H]1O[C@@H](Oc2cc(O)cc(/C=C/c3ccc(O)cc3)c2)[C@H](O)[C@@H](O)[C@@H]1O [polydatin]
4. COc1ccc(C(C)=O)c(O)c1 [paeonol]
5. O=C(O)C1=C[C@@H](O)[C@@H](O)[C@H](O)C1 [shikimicacid]
6. COc1ccc2cc3[n+](cc2c1OC)CCc1cc2c(cc1-3)OCO2 [berberine]

1: 0; 2: 45.7; 3: 0; 4: 0; 5: 0; 6: 0

// for each compound below, give its inhibition at 200 µM
1. N#C[C@H](O[C@@H]1O[C@H](CO[C@@H]2O[C@H](CO)[C@@H](O)[C@H](O)[C@H]2O)[C@@H](O)[C@H](O)[C@H]1O)c1ccccc1 [amygdalin]
2. O=c1c(-c2ccc(O)cc2)coc2c([C@@H]3O[C@H](CO)[C@@H](O)[C@H](O)[C@H]3O)c(O)ccc12 [puerarin]
3. COc1cc(C[C@H]2C(=O)OC[C@@H]2Cc2ccc(OC)c(OC)c2)ccc1O [arctigenin]
4. C[C@H]1CC[C@@]2(OC1)O[C@H]1C[C@H]3[C@@H]4CC[C@@H]5C[C@@H](O)CC[C@]5(C)[C@H]4CC[C@]3(C)[C@H]1[C@@H]2C [sarsasapogenin]
5. O=c1c(-c2ccc(O)cc2)coc2cc(O)ccc12 [daidzein]
6. O=C1CCC[C@@H]2[C@H]3CCCN4CCC[C@@H](CN12)[C@@H]34 [matrine]
7. COc1cc2ccc(=O)oc2cc1OC [scoparone]
8. O=C1CCC[C@@H]2[C@H]3CCCN4CCC[C@H](CN12)[C@@H]34 [sophoridine]

1: 1.87; 2: 0; 3: 27.1; 4: 0; 5: 0; 6: 23.5; 7: 0; 8: 11.8

I'm hoping you can list inhibition at 200 µM for every compound here, please.
1. O=C1c2ccccc2C(=O)c2c1ccc(O)c2O [alizarin]
2. CC[C@@]1(O)C(=O)OCc2c1cc1n(c2=O)Cc2cc3ccccc3nc2-1 [camptothecin]
3. COc1ccc2cc1Oc1ccc(cc1)C[C@H]1c3c(cc4c(c3Oc3cc5c(cc3OC)CCN(C)[C@@H]5C2)OCO4)CCN1C [cepharanthine]

0
0
0

---

So I've got a bunch of compounds here, and I need their pIC50 values.
- target.or.system: Mtb proteasome (Mycobacterium tuberculosis)
- Construct: Proteasome activity of the supernatants was assessed; endogenous in cells; host or cells: Mycobacterium tuberculosis H37Ra (crude lysate supernatant)
- test.description: biochemical
Where a SMILES comes first, the peptide text is derived from it. The star is where a group is joined. Cbz = O=C(OCc1ccccc1)*
One number for each entry, as −log10 of the molar value.

[[record]]
compound = "O=C(/C=C/c1ccc(O)cc1)c1ccc(O)cc1O [isoliquiritigenin]"
endpoint_label = "pIC50"
measured = 4.19

[[record]]
compound = "COc1ccc(-c2cc(=O)c3c(O)c(OC)c(O[C@@H]4O[C@H](CO[C@@H]5O[C@@H](C)[C@H](O)[C@@H](O)[C@H]5O)[C@@H](O)[C@H](O)[C@H]4O)cc3o2)cc1 [pectolinarin]"
endpoint_label = "pIC50"
measured = 4.30

[[record]]
compound = "O=C(O)[C@H]1O[C@@H](Oc2cc3oc(-c4ccccc4)cc(=O)c3c(O)c2O)[C@H](O)[C@@H](O)[C@@H]1O [baicalin]"
endpoint_label = "pIC50"
measured = 4.08

[[record]]
compound = "CC(C)C[C@@H](C=O)NC(=O)[C@H](CC(C)C)NC(=O)[C@H](CC(C)C)NC(=O)OCc1ccccc1 [MG132, reference compound] (Cbz-Leu-Leu-Leu-aldehyde)"
endpoint_label = "pIC50"
measured = 4.55

[[record]]
compound = "COc1c(O)cc2oc(-c3ccc(O)cc3)cc(=O)c2c1O [hispidulin]"
endpoint_label = "pIC50"
measured = 4.23


Lab note: each compound below needs its pIC50 filled in.
1. O=c1c(O)c(-c2cc(O)c(O)c(O)c2)oc2cc(O)cc(O)c12 [myricetin]
2. COc1ccc(-c2oc3c(CC=C(C)C)c(O[C@@H]4O[C@H](CO)[C@@H](O)[C@H](O)[C@H]4O)cc(O)c3c(=O)c2O[C@@H]2O[C@@H](C)[C@H](O)[C@@H](O)[C@H]2O)cc1 [icarrin, icariin]
3. O=c1c(O)c(-c2ccc(O)cc2)oc2cc(O)cc(O)c12 [kaempferol]
4. CC1=C(O)C(=O)C=C2C1=CC=C1[C@@]2(C)CC[C@@]2(C)[C@@H]3C[C@](C)(C(=O)O)CC[C@]3(C)CC[C@]12C [tripterine]
5. Cc1cc(O)c2c(c1)C(=O)c1cc(O)cc(O)c1C2=O [emodin]

[4.26, 4.05, 3.97, 3.94, 4.09]

For the compound O=c1cc(-c2ccccc2)oc2cc(O)c(O)c(O)c12 [baicalein] , report pIC50.
4.34
